# target.or.system: S. pneumoniae Topoisomerase IV ATPase (ParE) (Streptococcus pneumoniae serotype 4)
# Sequence (Q59961 whole entry): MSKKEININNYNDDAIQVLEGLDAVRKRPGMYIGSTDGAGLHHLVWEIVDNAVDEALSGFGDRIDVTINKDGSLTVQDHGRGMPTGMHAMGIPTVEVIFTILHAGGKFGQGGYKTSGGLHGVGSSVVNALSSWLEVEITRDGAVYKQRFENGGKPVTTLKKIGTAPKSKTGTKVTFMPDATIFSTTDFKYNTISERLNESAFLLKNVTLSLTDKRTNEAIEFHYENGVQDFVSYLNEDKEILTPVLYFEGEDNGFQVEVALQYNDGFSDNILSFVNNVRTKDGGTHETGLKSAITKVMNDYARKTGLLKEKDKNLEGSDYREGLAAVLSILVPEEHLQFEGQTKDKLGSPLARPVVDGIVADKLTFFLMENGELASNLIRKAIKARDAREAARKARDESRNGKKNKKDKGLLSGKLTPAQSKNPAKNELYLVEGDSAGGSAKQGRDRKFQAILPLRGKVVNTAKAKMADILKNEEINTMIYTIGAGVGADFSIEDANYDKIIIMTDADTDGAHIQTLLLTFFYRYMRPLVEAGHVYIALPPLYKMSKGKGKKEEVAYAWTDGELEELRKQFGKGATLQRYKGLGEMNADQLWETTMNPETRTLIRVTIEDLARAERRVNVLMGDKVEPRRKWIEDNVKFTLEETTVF
# protocol.details: S. pneumoniae Topoisomerase IV ATPase inhibition
# Assay type: biochemical
# assay.conditions: values marked * are an average of two or more data points, read-out: % Inh (13 μM) of S. pneumoniae Topoisomerase IV ATPase
Form field: inhibition at 13 µM (one value per entry).
The response must be a number in % with no trailing unit.

Below, 10 compounds whose answers are already recorded.
{"columns": ["compound", "target.or.system", "inhibition at 13 µM / %"],
 "data": [
  ["O=C(O)c1cncc(-c2cnc(Nc3cccc(F)c3)nc2-n2ccc(C(F)(F)F)n2)c1 [Example 641]", "S. pneumoniae Topoisomerase IV ATPase (ParE) (Streptococcus pneumoniae serotype 4)", 100],
  ["CCOC(=O)c1cncc(-c2cnc(Nc3ccc(F)c(Cl)c3)nc2NCc2ccco2)c1 [Example 110]", "S. pneumoniae Topoisomerase IV ATPase (ParE) (Streptococcus pneumoniae serotype 4)", 27.6],
  ["COc1cc(Cl)cc(Nc2ncc(-c3cncc(C(=O)O)c3)c(-n3nc(C(F)(F)F)cc3C)n2)c1 [Example 775]", "S. pneumoniae Topoisomerase IV ATPase (ParE) (Streptococcus pneumoniae serotype 4)", 100],
  ["COc1cc(Nc2ncc(-c3cnc(OC)c(-c4noc(=O)[nH]4)c3)c(-n3nc(C(F)(F)F)cc3C)n2)cc(OC)c1 [Example 975]", "S. pneumoniae Topoisomerase IV ATPase (ParE) (Streptococcus pneumoniae serotype 4)", 100],
  ["CCN1CC(CNc2nc(Nc3ccc(F)c(Cl)c3)ncc2-c2cnc(OC)nc2)CC1=O (stereo not shown) [Example 467]", "S. pneumoniae Topoisomerase IV ATPase (ParE) (Streptococcus pneumoniae serotype 4)", 76],
  ["CCOC(=O)c1sc(-c2cnc(Nc3ccc(F)c(Cl)c3)nc2NCCCOC)nc1-c1ccn(C)n1 [Example 508]", "S. pneumoniae Topoisomerase IV ATPase (ParE) (Streptococcus pneumoniae serotype 4)", 0],
  ["CCS(=O)(=O)NC(=O)c1cc(-c2cnc(Nc3cc(C)cc(C)c3)nc2-n2nc(C(F)(F)F)cc2C)cnc1OC [Example 823]", "S. pneumoniae Topoisomerase IV ATPase (ParE) (Streptococcus pneumoniae serotype 4)", 100],
  ["COc1nc(OC)c(-c2cnc(Nc3ccc(F)c(Cl)c3)nc2-n2nc(C(F)(F)F)cc2C)cc1C(=O)O [Example 1131]", "S. pneumoniae Topoisomerase IV ATPase (ParE) (Streptococcus pneumoniae serotype 4)", 100],
  ["CN(C)CCCNc1nc(Nc2ccc(F)c(Cl)c2)ncc1-c1ccc(C(=O)NCc2ccccc2)s1 [Example 368]", "S. pneumoniae Topoisomerase IV ATPase (ParE) (Streptococcus pneumoniae serotype 4)", 105],
  ["COc1cc(Nc2ncc(-c3c[nH]c(=O)c(C(=O)O)c3)c(-n3ccc(C(F)(F)F)n3)n2)cc(OC)c1 [Example 1096]", "S. pneumoniae Topoisomerase IV ATPase (ParE) (Streptococcus pneumoniae serotype 4)", 100]
]}

query: Given CCOC(=O)c1cncc(-c2cnc(Nc3ccc(F)c(Cl)c3)nc2NCCCN2CCOCC2)c1 [Example 106] , state its recorded inhibition at 13 µM.
result: 40.8

query: Given the entry Fc1ccc(Nc2ncc(-c3cncnc3)c(N3CCC(N4CCOCC4)CC3)n2)cc1Cl [Example 62] , report its measured inhibition at 13 µM.
result: 71

query: What does the data say about its inhibition at 13 µM? Entry: COc1cc(Nc2ncc(-c3cnc(OC)c(C#N)c3)c(-n3nc(C(F)(F)F)cc3C)n2)cc(OC)c1 [Example 868]
result: 6

query: Request the reported inhibition at 13 µM associated with COc1cc(F)cc(Nc2ncc(-c3ccc(C(=O)O)s3)c(-n3ccc(C(F)(F)F)n3)n2)c1 [Example 887]
result: 100

query: Request the reported inhibition at 13 µM associated with COc1cc(Nc2ncc(-c3cnc(OC)c(-c4n[nH]c(=O)o4)c3)c(-n3nc(C(F)(F)F)cc3C)n2)cc(OC)c1 [Example 805]
result: 100

query: Sample O=C(O)/C=C/c1cccc(-c2cnc(Nc3ccc(F)c(Cl)c3)nc2N2CCCCC2)c1 [Example 297] — what was its inhibition at 13 µM?
result: 128

query: Any idea what its inhibition at 13 µM is? The compound is COCCCNc1nc(Nc2ccc(F)c(Cl)c2)ncc1-c1cccc(/C=C/C(=O)O)c1 [Example 293]
result: 85.3

query: Param item = O=C(O)/C=C/c1cccc(-c2cnc(Nc3ccc(F)c(Cl)c3)nc2-n2cnc(C(F)(F)F)c2)c1 [Example 332] ; retrieve measured inhibition at 13 µM.
result: 62.1

query: Name the recorded inhibition at 13 µM for Fc1ccc(Nc2ncc(-c3cncnc3)c(N3CCCCCC3)n2)cc1Cl [Example 213] .
result: 55.8
